- Test system: PBL
- Procedure Text: Effective concentration required for antiviral activity against lymphocyte cell line of PBL cells of Human by […]
- Type: functional, cell-based
Give EC50 for every item shown.
# output: numeric value plus its unit

Q: Fill blank: measured EC50 of the molecule Cc1cn([C@H]2C[C@H](N=[N+]=[N-])[C@@H](CO)O2)c(=O)[nH]c1=O [ZIDOVUDINE] is ____.
Result: 0.029 µM

Q: Query CC(C)CCCC(C)[C@H]1CC[C@H]2[C@@H]3CCC4C[C@@H](CCC=C(c5cc(Cl)c(O)c(C(=O)O)c5)c5cc(Cl)c(O)c(C(=O)O)c5)CC[C@]4(C)[C@H]3CC[C@]12C (some centres not stated) next
Result: 44.8 µM

---

- Tested on: MT2
- Procedure Text: Effective concentration required for antiviral activity against HIV strain IIIB in MT-2 cells by XTT assay
- Format: functional, cell-based
- Conditions: Homo sapiens
Measure Name: EC50 (nM)
// units = nM; emit number, no label

Q: Fill blank: measured EC50 of the compound Cc1cn([C@H]2C[C@H](N=[N+]=[N-])[C@@H](CO)O2)c(=O)[nH]c1=O [ZIDOVUDINE] is ____.
Result: 3

Q: Query CC(C)CCCC(C)[C@H]1CC[C@H]2[C@@H]3CCC4C[C@@H](CCC=C(c5cc(Cl)c(O)c(C(=O)O)c5)c5cc(Cl)c(O)c(C(=O)O)c5)CC[C@]4(C)[C@H]3CC[C@]12C (some centres not stated) next
Result: 3400

---

- System: Human immunodeficiency virus
- Procedure Text: Effective concentration required for antiviral activity against HIV strain G9106 (AZT-resistant strain) by XTT assay
- Type: functional, organism-based
- Conditions: Human immunodeficiency virus 1
Measure Name: EC50 (µM)
// units = µM; emit number, no label

Q: Please provide the recorded EC50 for CC(C)CCCC(C)[C@H]1CC[C@H]2[C@@H]3CCC4C[C@@H](CCC=C(c5cc(Cl)c(O)c(C(=O)O)c5)c5cc(Cl)c(O)c(C(=O)O)c5)CC[C@]4(C)[C@H]3CC[C@]12C (some centres not stated) , tested on Human immunodeficiency virus.
Result: 6.6
